Data provenance is patent US12173007B2.

# assayTarget: IL-17A(FLAG-Tagged): IL-17RA(His-Tagged) binding (Homo sapiens, UniProt Q16552, K93Q)
# Sequence (Q16552 with tags, fused parts or gaps K93Q): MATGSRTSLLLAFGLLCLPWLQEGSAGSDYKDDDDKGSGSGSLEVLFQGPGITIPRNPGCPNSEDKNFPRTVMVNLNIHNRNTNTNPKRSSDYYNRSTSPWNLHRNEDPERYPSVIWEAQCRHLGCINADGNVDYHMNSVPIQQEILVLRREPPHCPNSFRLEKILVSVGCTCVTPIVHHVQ
# procedureText: IL-17A(FLAG-tagged):IL-17RA(His-tagged) binding disruption Eu-HTRF assay, Protocol 2
# testParameters: FLAG-IL-17A 1 nM; average if tested more than once
# From the text: IL-17A(FLAG-Tagged): IL-17RA(His-Tagged) Binding Disruption Eu-HTRF Assay An antibody directed against the FLAG tag of IL-17A (SEQ ID NO: 1) is labeled with the HTRF donor chromophore (Europium-cryptate). […] The fluorescence-resonance energy transfer (FRET) depends on the vicinity of the donor chromophore to the acceptor, and interruption of the binding between the IL-17A and IL-17RA causes the reduction/loss of FRET. […]
measurementLabel: IC50

[[record]]
molecule = "Cc1nonc1C(=O)N[C@@H](CCC(C)(C)C(F)(F)F)c1cn2ncc(CN3CC(F)(F)CNC3=O)cc2n1 [Example 115]"
assaytarget = "IL-17A(FLAG-Tagged): IL-17RA(His-Tagged) binding (Homo sapiens, UniProt Q16552, K93Q)"
val = "< 50 nM"

[[record]]
molecule = "[2H]C1([2H])NC(=O)N([C@H](COC2CC2)c2cnn3cc([C@H](CCC(C)(C)C(F)(F)F)NC(=O)c4nonc4OC)nc3c2)C([2H])([2H])C1(F)F [Example 75]"
assaytarget = "IL-17A(FLAG-Tagged): IL-17RA(His-Tagged) binding (Homo sapiens, UniProt Q16552, K93Q)"
val = "< 50 nM"


Continue with the next molecule.
Query block: For the molecule shown here, COC[C@H](c1cnn2cc([C@@H](NC(=O)c3nonc3CC(F)(F)F)C3CCC(F)(F)CC3)nc2c1)N1CC(F)(F)CNC1=O [Example 130] , give the reported IC50.
Result block: < 50 nM

====

# IC50 values compiled below
# assayTarget: IL-17A(FLAG-Tagged): IL-17RA(His-Tagged) binding (Homo sapiens, UniProt Q16552, K93Q)
# procedureText: IL-17A(FLAG-tagged):IL-17RA(His-tagged) binding disruption Eu-HTRF assay, Protocol 2
# testParameters: FLAG-IL-17A 1 nM; average if tested more than once

Here's what some known entries look like.
[[record]]
compound = "COC[C@H](c1cnn2cc(C(CC(C)(C)C(C)(F)F)NC(=O)c3nonc3C3CC3)nc2c1)N1CC(F)(F)CNC1=O (single isomer, unassigned)"
measurementlabel = "IC50"
val = "< 50 nM"

[[record]]
compound = "[2H]C1([2H])NC(=O)N([C@H](COC)c2cnn3cc([C@H](CCC(C)(C)C(F)(F)F)NC(=O)c4nonc4C(F)(F)F)nc3c2)C([2H])([2H])C1(F)F"
measurementlabel = "IC50"
val = "< 50 nM"


Query block: For the compound shown here, `[2H]C1([2H])NC(=O)N([C@H](COC)c2cnn3cc([C@H](CCC(C)(C)C(F)(F)F)NC(=O)c4nonc4OC)nc3c2)C([2H])([2H])C1(F)F` , give the reported IC50.
Result block: < 50 nM

====

# System: IL-17A-induced G-CSF production in human normal keratinocyte (NHK)
# procedureText: NHK assay: IL-17A-induced G-CSF production in normal human keratinocytes
# Type: cell-based
# testParameters: Homo sapiens, Keratinocyte, 24 h, IL-17A 5 ng/mL, G-CSF by HTRF, average if tested more than once
pIC50: −log10 of the molar value.
measurementLabel: pIC50

Here's what some known entries look like.
[[record]]
molecule = "CC(C)(C[C@H](NC(=O)c1nonc1C1CC1)c1cn2ncc([C@@H](COC3CC3)N3CC(F)(F)CNC3=O)cc2n1)C(F)(F)F"
assaytarget = "IL-17A-induced G-CSF production in human normal keratinocyte (NHK)"
val = "> 7.30"

[[record]]
molecule = "Cc1nonc1C(=O)N[C@H](c1cn2ncc([C@@H](C3CC3)N3CCC(C(F)(F)F)NC3=O)cc2n1)C1CCC(F)(F)CC1 (single isomer, unassigned)"
assaytarget = "IL-17A-induced G-CSF production in human normal keratinocyte (NHK)"
val = "< 7.00"

[[record]]
molecule = "[2H]C([2H])([2H])C([2H])([2H])n1nccc1C(=O)N[C@H](c1cn2ncc(CN3CC(F)(F)CNC3=O)cc2n1)C1CCC(F)(F)CC1"
assaytarget = "IL-17A-induced G-CSF production in human normal keratinocyte (NHK)"
val = "> 7.30"

[[record]]
molecule = "COC[C@H](c1cnn2cc([C@@H](NC(=O)c3nonc3CC(F)(F)F)C3CCC(F)(F)CC3)nc2c1)N1CC(F)(F)CNC1=O"
assaytarget = "IL-17A-induced G-CSF production in human normal keratinocyte (NHK)"
val = "> 7.30"


Query block: For the molecule shown here, CCOCC(c1cnn2cc([C@@H](NC(=O)c3nonc3C)C3CCC(F)(F)CC3)nc2c1)N1CC(F)(F)CNC1=O (single isomer, unassigned) , give the reported pIC50.
Result block: > 7.30

Query block: For the molecule shown here, COC[C@H](c1cnn2cc(C(NC(=O)c3nonc3C)C3C[C@H]4CC[C@H]4C3)nc2c1)N1CC(F)(F)CNC1=O (single isomer, unassigned) , give the reported pIC50.
Result block: > 7.30

====

# IC50 values compiled below
# System: IL-17A-induced G-CSF production in human normal keratinocyte (NHK)
# procedureText: NHK assay: IL-17A-induced G-CSF production in normal human keratinocytes
# Type: cell-based
# testParameters: Homo sapiens, Keratinocyte, 24 h, IL-17A 5 ng/mL, G-CSF by HTRF, average if tested more than once

Here's what some known entries look like.
[[record]]
molecule = "CC1CNC(=O)N(Cc2cnn3cc([C@@H](NC(=O)c4nonc4C4CC4)C4CCC(F)(F)CC4)nc3c2)C1 (single isomer, unassigned)"
measurementlabel = "IC50"
val = "> 100 nM"

[[record]]
molecule = "COC[C@H](c1cnn2cc(C(CCC3(C(F)(F)F)CC3)NC(=O)c3nonc3C)nc2c1)N1CC(F)(F)CNC1=O (single isomer, unassigned)"
measurementlabel = "IC50"
val = "> 100 nM"

[[record]]
molecule = "COC[C@H](c1cnn2cc([C@@H](NC(=O)c3nonc3C3CC3(F)F)C3CCC(F)(F)CC3)nc2c1)N1CC(F)(F)CNC1=O (single isomer, unassigned)"
measurementlabel = "IC50"
val = "< 50 nM"

[[record]]
molecule = "[2H]C1([2H])NC(=O)N([C@H](COC2CC2)c2cnn3cc([C@@H](NC(=O)c4nonc4CC)C4CCC(F)(F)CC4)nc3c2)C([2H])([2H])C1(F)F"
measurementlabel = "IC50"
val = "< 50 nM"


Query block: For the molecule shown here, `O=C(N[C@H](c1cn2ncc(CN3CCCNC3=O)cc2n1)C1CCC(F)(F)CC1)c1nonc1C1CC1` , give the reported IC50.
Result block: > 100 nM

Query block: For the molecule shown here, COC[C@H](c1cnn2cc([C@@H](NC(=O)c3nonc3C3CC3)[C@@H](C)OC3CC3)nc2c1)N1CC(F)(F)CNC1=O (relative stereo) , give the reported IC50.
Result block: 50 to 100 nM

Query block: For the molecule shown here, COC[C@H](c1cnn2cc([C@@H](NC(=O)c3nonc3C)[C@@H](C)OC(C)(C)C(F)(F)F)nc2c1)N1CC(F)(F)CNC1=O (relative stereo) , give the reported IC50.
Result block: < 50 nM

====

# pIC50 values compiled below
# assayTarget: IL-17A(FLAG-Tagged): IL-17RA(His-Tagged) binding (Homo sapiens, UniProt Q16552, K93Q)
# procedureText: IL-17A(FLAG-tagged):IL-17RA(His-tagged) binding disruption Eu-HTRF assay, Protocol 2
# testParameters: FLAG-IL-17A 1 nM; average if tested more than once
pIC50: −log10 of the molar value.

[[record]]
compound = "[2H]C1([2H])NC(=O)N([C@H](COC)c2cnn3cc([C@H](CCC(C)(C)C(F)(F)F)NC(=O)c4nonc4C(F)F)nc3c2)C([2H])([2H])C1(F)F"
assaytarget = "IL-17A(FLAG-Tagged): IL-17RA(His-Tagged) binding (Homo sapiens, UniProt Q16552, K93Q)"
val = "> 7.30"

[[record]]
compound = "COC[C@H](c1cnn2cc([C@@H](NC(=O)c3nonc3C(F)F)C3CCC(F)(F)CC3)nc2c1)N1CC(F)(F)CNC1=O"
assaytarget = "IL-17A(FLAG-Tagged): IL-17RA(His-Tagged) binding (Homo sapiens, UniProt Q16552, K93Q)"
val = "> 7.30"

[[record]]
compound = "COC[C@H](c1cnn2cc(C(CCC3(C(F)(F)F)CC3)NC(=O)c3nonc3C)nc2c1)N1CC(F)(F)CNC1=O (single isomer, unassigned) [Example 125]"
assaytarget = "IL-17A(FLAG-Tagged): IL-17RA(His-Tagged) binding (Homo sapiens, UniProt Q16552, K93Q)"
val = "< 7.00"

[[record]]
compound = "COC[C@H](c1cnn2cc([C@@H](NC(=O)c3nonc3C3CC3)C(C3CC3)C3CC3)nc2c1)N1CC(F)(F)CNC1=O"
assaytarget = "IL-17A(FLAG-Tagged): IL-17RA(His-Tagged) binding (Homo sapiens, UniProt Q16552, K93Q)"
val = "> 7.30"

[[record]]
compound = "[2H]C1([2H])NC(=O)N([C@H](COC2CC2)c2cnn3cc([C@H](CCC(C)(C)C(F)(F)F)NC(=O)c4nonc4C)nc3c2)C([2H])([2H])C1(F)F"
assaytarget = "IL-17A(FLAG-Tagged): IL-17RA(His-Tagged) binding (Homo sapiens, UniProt Q16552, K93Q)"
val = "> 7.30"


Continue with the next compound.
Query block: For the compound shown here, `[2H]C1([2H])NC(=O)N([C@H](COC2CC2)c2cnn3cc([C@@H](NC(=O)c4nonc4CC)C4CCC(F)(F)CC4)nc3c2)C([2H])([2H])C1(F)F` , give the reported pIC50.
Result block: > 7.30
